# condition.parameters: in ethanol, 298.15 K
metric.name: solubility (mole fraction)

Given item C[N+](C)(C)C[C@H](O)CC(=O)[O-] , the value recorded as its solubility (mole fraction) is 0.0483

====

# condition.parameters: in acetone, 323.15 K
metric.name: solubility (mole fraction)

Given item C[N+](C)(C)C[C@H](O)CC(=O)[O-] , the value recorded as its solubility (mole fraction) is 0.000195

====

# condition.parameters: in methanol, 278.15 K
metric.name: solubility (mole fraction)

Given item C[N+](C)(C)C[C@H](O)CC(=O)[O-] , the value recorded as its solubility (mole fraction) is 0.0962

====

# condition.parameters: in isopropanol, 308.15 K
metric.name: solubility (mole fraction)
API note: the answer field is a bare number with no unit suffix.

Given item C[N+](C)(C)C[C@H](O)CC(=O)[O-] , the value recorded as its solubility (mole fraction) is 0.00527

====

# condition.parameters: in ethanol, 323.15 K
metric.name: solubility (mole fraction)
API note: the answer field is a bare number with no unit suffix.

Given item C[N+](C)(C)C[C@H](O)CC(=O)[O-] , the value recorded as its solubility (mole fraction) is 0.0648

====

# condition.parameters: in ethanol, 348.15 K
metric.name: solubility (mole fraction)
API note: the answer field is a bare number with no unit suffix.

Given item C[N+](C)(C)C[C@H](O)CC(=O)[O-] , the value recorded as its solubility (mole fraction) is 0.0919

====

# condition.parameters: in isopropanol, 303.15 K
metric.name: solubility (mole fraction)
API note: the answer field is a bare number with no unit suffix.

Given item C[N+](C)(C)C[C@H](O)CC(=O)[O-] , the value recorded as its solubility (mole fraction) is 0.00417

====

# condition.parameters: in ethanol, 343.15 K
metric.name: solubility (mole fraction)
API note: the answer field is a bare number with no unit suffix.

Given item C[N+](C)(C)C[C@H](O)CC(=O)[O-] , the value recorded as its solubility (mole fraction) is 0.0855

====

# condition.parameters: in methanol, 318.15 K
metric.name: solubility (mole fraction)
API note: the answer field is a bare number with no unit suffix.

Given item C[N+](C)(C)C[C@H](O)CC(=O)[O-] , the value recorded as its solubility (mole fraction) is 0.154

====

# condition.parameters: in ethanol, 338.15 K
metric.name: solubility (mole fraction)
API note: the answer field is a bare number with no unit suffix.

Given item C[N+](C)(C)C[C@H](O)CC(=O)[O-] , the value recorded as its solubility (mole fraction) is 0.0801

====

# condition.parameters: in methanol, 328.15 K
metric.name: solubility (mole fraction)

Given item C[N+](C)(C)C[C@H](O)CC(=O)[O-] , the value recorded as its solubility (mole fraction) is 0.178

====

# condition.parameters: in acetone, 298.15 K
metric.name: solubility (mole fraction)
API note: the answer field is a bare number with no unit suffix.

Given item C[N+](C)(C)C[C@H](O)CC(=O)[O-] , the value recorded as its solubility (mole fraction) is 0.000117

====

# condition.parameters: in methanol, 293.15 K
metric.name: solubility (mole fraction)
API note: the answer field is a bare number with no unit suffix.

Given item C[N+](C)(C)C[C@H](O)CC(=O)[O-] , the value recorded as its solubility (mole fraction) is 0.111

====

# condition.parameters: in ethanol, 293.15 K
metric.name: solubility (mole fraction)
API note: the answer field is a bare number with no unit suffix.

Given item C[N+](C)(C)C[C@H](O)CC(=O)[O-] , the value recorded as its solubility (mole fraction) is 0.0452

====

# condition.parameters: in methanol, 323.15 K
metric.name: solubility (mole fraction)
API note: the answer field is a bare number with no unit suffix.

Given item C[N+](C)(C)C[C@H](O)CC(=O)[O-] , the value recorded as its solubility (mole fraction) is 0.165

====

# condition.parameters: in isopropanol, 328.15 K
metric.name: solubility (mole fraction)
API note: the answer field is a bare number with no unit suffix.

Given item C[N+](C)(C)C[C@H](O)CC(=O)[O-] , the value recorded as its solubility (mole fraction) is 0.0118

====

# condition.parameters: in ethanol, 278.15 K
metric.name: solubility (mole fraction)

Given item C[N+](C)(C)C[C@H](O)CC(=O)[O-] , the value recorded as its solubility (mole fraction) is 0.0392

====

# condition.parameters: in isopropanol, 288.15 K
metric.name: solubility (mole fraction)
API note: the answer field is a bare number with no unit suffix.

Given item C[N+](C)(C)C[C@H](O)CC(=O)[O-] , the value recorded as its solubility (mole fraction) is 0.00223

====

# condition.parameters: in acetone, 293.15 K
metric.name: solubility (mole fraction)
API note: the answer field is a bare number with no unit suffix.

Given item C[N+](C)(C)C[C@H](O)CC(=O)[O-] , the value recorded as its solubility (mole fraction) is 0.000106

====

# condition.parameters: in isopropanol, 313.15 K
metric.name: solubility (mole fraction)
API note: the answer field is a bare number with no unit suffix.

Given item C[N+](C)(C)C[C@H](O)CC(=O)[O-] , the value recorded as its solubility (mole fraction) is 0.0063

====

# condition.parameters: in ethanol, 283.15 K
metric.name: solubility (mole fraction)
API note: the answer field is a bare number with no unit suffix.

Given item C[N+](C)(C)C[C@H](O)CC(=O)[O-] , the value recorded as its solubility (mole fraction) is 0.0408

====

# condition.parameters: in isopropanol, 278.15 K
metric.name: solubility (mole fraction)
API note: the answer field is a bare number with no unit suffix.

Given item C[N+](C)(C)C[C@H](O)CC(=O)[O-] , the value recorded as its solubility (mole fraction) is 0.00146

====

# condition.parameters: in ethanol, 328.15 K
metric.name: solubility (mole fraction)
API note: the answer field is a bare number with no unit suffix.

Given item C[N+](C)(C)C[C@H](O)CC(=O)[O-] , the value recorded as its solubility (mole fraction) is 0.0698

====

# condition.parameters: in acetone, 308.15 K
metric.name: solubility (mole fraction)
API note: the answer field is a bare number with no unit suffix.

Given item C[N+](C)(C)C[C@H](O)CC(=O)[O-] , the value recorded as its solubility (mole fraction) is 0.000143

====

# condition.parameters: in methanol, 283.15 K
metric.name: solubility (mole fraction)
API note: the answer field is a bare number with no unit suffix.

Given item C[N+](C)(C)C[C@H](O)CC(=O)[O-] , the value recorded as its solubility (mole fraction) is 0.0982

====

# condition.parameters: in methanol, 288.15 K
metric.name: solubility (mole fraction)
API note: the answer field is a bare number with no unit suffix.

Given item C[N+](C)(C)C[C@H](O)CC(=O)[O-] , the value recorded as its solubility (mole fraction) is 0.104

====

# condition.parameters: in methanol, 303.15 K
metric.name: solubility (mole fraction)
API note: the answer field is a bare number with no unit suffix.

Given item C[N+](C)(C)C[C@H](O)CC(=O)[O-] , the value recorded as its solubility (mole fraction) is 0.127

====

# condition.parameters: in isopropanol, 333.15 K
metric.name: solubility (mole fraction)
API note: the answer field is a bare number with no unit suffix.

Given item C[N+](C)(C)C[C@H](O)CC(=O)[O-] , the value recorded as its solubility (mole fraction) is 0.0144

====

# condition.parameters: in methanol, 313.15 K
metric.name: solubility (mole fraction)

Given item C[N+](C)(C)C[C@H](O)CC(=O)[O-] , the value recorded as its solubility (mole fraction) is 0.144

====

# condition.parameters: in isopropanol, 298.15 K
metric.name: solubility (mole fraction)
API note: the answer field is a bare number with no unit suffix.

Given item C[N+](C)(C)C[C@H](O)CC(=O)[O-] , the value recorded as its solubility (mole fraction) is 0.0034

====

# condition.parameters: in methanol, 308.15 K
metric.name: solubility (mole fraction)
API note: the answer field is a bare number with no unit suffix.

Given item C[N+](C)(C)C[C@H](O)CC(=O)[O-] , the value recorded as its solubility (mole fraction) is 0.136

====

# condition.parameters: in methanol, 298.15 K
metric.name: solubility (mole fraction)
API note: the answer field is a bare number with no unit suffix.

Given item C[N+](C)(C)C[C@H](O)CC(=O)[O-] , the value recorded as its solubility (mole fraction) is 0.119

====

# condition.parameters: in ethanol, 288.15 K
metric.name: solubility (mole fraction)
API note: the answer field is a bare number with no unit suffix.

Given item C[N+](C)(C)C[C@H](O)CC(=O)[O-] , the value recorded as its solubility (mole fraction) is 0.0431

====

# condition.parameters: in ethanol, 303.15 K
metric.name: solubility (mole fraction)
API note: the answer field is a bare number with no unit suffix.

Given item C[N+](C)(C)C[C@H](O)CC(=O)[O-] , the value recorded as its solubility (mole fraction) is 0.0517

====

# condition.parameters: in acetone, 278.15 K
metric.name: solubility (mole fraction)
API note: the answer field is a bare number with no unit suffix.

Given item C[N+](C)(C)C[C@H](O)CC(=O)[O-] , the value recorded as its solubility (mole fraction) is 7.1e-05
